experiment: Oral bioavailability in rat at 3 mg/kg; assay type: ADME, organism-based; settings: in vivo
quantity_kind: bioavailability (%)

- structure_as_smiles: "CC(C)(C1CCN(C(=O)c2cc(F)ccc2S(C)(=O)=O)CC1)S(=O)(=O)c1cccc(C(F)(F)F)c1"
  bioavailability (%): 24

[P] NS(=O)(=O)c1cccc(C(F)(F)F)c1
[Q] CC(C)(C1CCN(C(=O)c2ccc(S(C)(=O)=O)cc2OC(F)(F)F)CC1)S(=O)(=O)c1cccc(C(F)(F)F)c1
-- ask // max by bioavailability over [ P , Q ] Provide the label of your selected option as the answer.
-- reply Q
(Q: 95%, P: 46%)

----------
molecular target: hERG (KCNH2) (Homo sapiens, UniProt Q12809); assay: Displacement of [35S]MK-499 from human ERG at 10 uM relative to control; details: probe [35S]MK-499
Sequence (Q12809 whole entry): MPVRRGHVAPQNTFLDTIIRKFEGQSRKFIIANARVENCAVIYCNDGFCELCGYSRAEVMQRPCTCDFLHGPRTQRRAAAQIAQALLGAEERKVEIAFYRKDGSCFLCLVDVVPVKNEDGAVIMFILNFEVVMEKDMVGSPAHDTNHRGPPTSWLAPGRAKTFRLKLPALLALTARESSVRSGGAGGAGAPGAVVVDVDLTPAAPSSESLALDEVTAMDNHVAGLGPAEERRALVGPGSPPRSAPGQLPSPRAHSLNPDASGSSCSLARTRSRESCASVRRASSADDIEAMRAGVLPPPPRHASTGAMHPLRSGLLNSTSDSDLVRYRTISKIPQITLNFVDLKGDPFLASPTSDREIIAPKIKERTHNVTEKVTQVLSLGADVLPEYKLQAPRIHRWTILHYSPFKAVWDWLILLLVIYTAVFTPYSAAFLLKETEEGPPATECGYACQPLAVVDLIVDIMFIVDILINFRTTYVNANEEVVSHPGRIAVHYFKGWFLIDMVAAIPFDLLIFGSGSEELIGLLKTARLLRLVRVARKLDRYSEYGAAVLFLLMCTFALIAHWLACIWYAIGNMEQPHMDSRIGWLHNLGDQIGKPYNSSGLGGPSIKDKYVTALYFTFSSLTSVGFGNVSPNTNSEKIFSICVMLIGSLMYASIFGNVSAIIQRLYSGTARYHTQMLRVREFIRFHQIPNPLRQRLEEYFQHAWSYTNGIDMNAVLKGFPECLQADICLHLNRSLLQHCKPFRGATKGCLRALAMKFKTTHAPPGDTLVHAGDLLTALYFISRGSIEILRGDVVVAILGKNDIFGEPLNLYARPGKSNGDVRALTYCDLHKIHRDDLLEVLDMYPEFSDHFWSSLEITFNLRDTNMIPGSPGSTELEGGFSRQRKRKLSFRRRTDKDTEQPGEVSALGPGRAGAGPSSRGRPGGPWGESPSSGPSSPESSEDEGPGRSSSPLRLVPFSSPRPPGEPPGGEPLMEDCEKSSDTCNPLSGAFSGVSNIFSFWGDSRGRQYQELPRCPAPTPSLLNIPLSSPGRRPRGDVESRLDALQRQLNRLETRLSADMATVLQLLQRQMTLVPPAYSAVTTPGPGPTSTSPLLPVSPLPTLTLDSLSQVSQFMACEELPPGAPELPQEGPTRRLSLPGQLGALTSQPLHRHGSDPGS
quantity_kind: inhibition at 10 µM (%)
Note: unit % is implicit; provide only the numeric part.

- structure_as_smiles: "CS(=O)(=O)c1ccc(C(=O)N2CCC(N(C3CC3)S(=O)(=O)c3cccc(C(F)(F)F)c3)CC2)c(Cl)c1"
  inhibition at 10 µM, %: 32
- structure_as_smiles: "CS(=O)(=O)c1cc(C(F)(F)F)ccc1C(=O)N1CCC(N(C2CC2)S(=O)(=O)c2cccc(C(F)(F)F)c2)CC1"
  inhibition at 10 µM, %: 43

-- ask Given the compound CS(=O)(=O)c1ccc(C(=O)N2CCC(N(C3CC3)S(=O)(=O)c3cccc(C(F)(F)F)c3)CC2)c(C(F)(F)F)c1 , write its reported inhibition at 10 µM.
-- reply 58

----------
test system: Liver microsome; test: Drug metabolism in human liver microsomes assessed as 3-(trifluoromethyl)-benzenesulfonamide level after 1 hr in presence of NADPH; format: ADME
quantity_kind: Drug metabolism (µM)

Solved entries:
- compound: "CS(=O)(=O)c1ccc(F)cc1C(=O)N1CCC(N(C2CC2)S(=O)(=O)c2cccc(C(F)(F)F)c2)CC1"
  u: "µM"
  measured: 0.03
- compound: "CCN(C1CCN(C(=O)c2ccccc2OC(F)(F)F)CC1)S(=O)(=O)c1cccc(C(F)(F)F)c1"
  u: "µM"
  measured: 1.16
- compound: "C[C@H]1[C@H](N(C2CC2)S(=O)(=O)c2cccc(C(F)(F)F)c2)CN1C(=O)c1ccc(S(C)(=O)=O)cc1Cl (racemic)"
  u: "µM"
  measured: 0.83

[P] CS(=O)(=O)c1ccc(C(=O)N2CCC3(CCN(S(=O)(=O)c4cccc(C(F)(F)F)c4)CC3)C2)c(C(F)(F)F)c1
[Q] CN(C1CCN(C(=O)c2ccccc2S(C)(=O)=O)CC1)S(=O)(=O)c1cccc(C(F)(F)F)c1
[R] CC1(N(C2CC2)S(=O)(=O)c2cccc(C(F)(F)F)c2)CCN(C(=O)c2cc(F)ccc2S(C)(=O)=O)CC1
[S] CS(=O)(=O)c1ccc(C(=O)N2CC(N(C3CC3)S(=O)(=O)c3cccc(C(F)(F)F)c3)C2)c(C(F)(F)F)c1
-- ask # rank by Drug metabolism, ascending (min first) State the ranking by listing the labels in the requested order.
-- reply R, S, Q, P
(R: 0.04 µM, S: 0.45 µM, Q: 0.95 µM, P: 5.13 µM)

----------
target: Voltage-dependent N-type calcium channel subunit alpha-1B (Homo sapiens, UniProt Q00975); assay: Inhibition of Cav2.2-mediated calcium influx in HEK cells by FLIPR assay
Sequence (Q00975 whole entry): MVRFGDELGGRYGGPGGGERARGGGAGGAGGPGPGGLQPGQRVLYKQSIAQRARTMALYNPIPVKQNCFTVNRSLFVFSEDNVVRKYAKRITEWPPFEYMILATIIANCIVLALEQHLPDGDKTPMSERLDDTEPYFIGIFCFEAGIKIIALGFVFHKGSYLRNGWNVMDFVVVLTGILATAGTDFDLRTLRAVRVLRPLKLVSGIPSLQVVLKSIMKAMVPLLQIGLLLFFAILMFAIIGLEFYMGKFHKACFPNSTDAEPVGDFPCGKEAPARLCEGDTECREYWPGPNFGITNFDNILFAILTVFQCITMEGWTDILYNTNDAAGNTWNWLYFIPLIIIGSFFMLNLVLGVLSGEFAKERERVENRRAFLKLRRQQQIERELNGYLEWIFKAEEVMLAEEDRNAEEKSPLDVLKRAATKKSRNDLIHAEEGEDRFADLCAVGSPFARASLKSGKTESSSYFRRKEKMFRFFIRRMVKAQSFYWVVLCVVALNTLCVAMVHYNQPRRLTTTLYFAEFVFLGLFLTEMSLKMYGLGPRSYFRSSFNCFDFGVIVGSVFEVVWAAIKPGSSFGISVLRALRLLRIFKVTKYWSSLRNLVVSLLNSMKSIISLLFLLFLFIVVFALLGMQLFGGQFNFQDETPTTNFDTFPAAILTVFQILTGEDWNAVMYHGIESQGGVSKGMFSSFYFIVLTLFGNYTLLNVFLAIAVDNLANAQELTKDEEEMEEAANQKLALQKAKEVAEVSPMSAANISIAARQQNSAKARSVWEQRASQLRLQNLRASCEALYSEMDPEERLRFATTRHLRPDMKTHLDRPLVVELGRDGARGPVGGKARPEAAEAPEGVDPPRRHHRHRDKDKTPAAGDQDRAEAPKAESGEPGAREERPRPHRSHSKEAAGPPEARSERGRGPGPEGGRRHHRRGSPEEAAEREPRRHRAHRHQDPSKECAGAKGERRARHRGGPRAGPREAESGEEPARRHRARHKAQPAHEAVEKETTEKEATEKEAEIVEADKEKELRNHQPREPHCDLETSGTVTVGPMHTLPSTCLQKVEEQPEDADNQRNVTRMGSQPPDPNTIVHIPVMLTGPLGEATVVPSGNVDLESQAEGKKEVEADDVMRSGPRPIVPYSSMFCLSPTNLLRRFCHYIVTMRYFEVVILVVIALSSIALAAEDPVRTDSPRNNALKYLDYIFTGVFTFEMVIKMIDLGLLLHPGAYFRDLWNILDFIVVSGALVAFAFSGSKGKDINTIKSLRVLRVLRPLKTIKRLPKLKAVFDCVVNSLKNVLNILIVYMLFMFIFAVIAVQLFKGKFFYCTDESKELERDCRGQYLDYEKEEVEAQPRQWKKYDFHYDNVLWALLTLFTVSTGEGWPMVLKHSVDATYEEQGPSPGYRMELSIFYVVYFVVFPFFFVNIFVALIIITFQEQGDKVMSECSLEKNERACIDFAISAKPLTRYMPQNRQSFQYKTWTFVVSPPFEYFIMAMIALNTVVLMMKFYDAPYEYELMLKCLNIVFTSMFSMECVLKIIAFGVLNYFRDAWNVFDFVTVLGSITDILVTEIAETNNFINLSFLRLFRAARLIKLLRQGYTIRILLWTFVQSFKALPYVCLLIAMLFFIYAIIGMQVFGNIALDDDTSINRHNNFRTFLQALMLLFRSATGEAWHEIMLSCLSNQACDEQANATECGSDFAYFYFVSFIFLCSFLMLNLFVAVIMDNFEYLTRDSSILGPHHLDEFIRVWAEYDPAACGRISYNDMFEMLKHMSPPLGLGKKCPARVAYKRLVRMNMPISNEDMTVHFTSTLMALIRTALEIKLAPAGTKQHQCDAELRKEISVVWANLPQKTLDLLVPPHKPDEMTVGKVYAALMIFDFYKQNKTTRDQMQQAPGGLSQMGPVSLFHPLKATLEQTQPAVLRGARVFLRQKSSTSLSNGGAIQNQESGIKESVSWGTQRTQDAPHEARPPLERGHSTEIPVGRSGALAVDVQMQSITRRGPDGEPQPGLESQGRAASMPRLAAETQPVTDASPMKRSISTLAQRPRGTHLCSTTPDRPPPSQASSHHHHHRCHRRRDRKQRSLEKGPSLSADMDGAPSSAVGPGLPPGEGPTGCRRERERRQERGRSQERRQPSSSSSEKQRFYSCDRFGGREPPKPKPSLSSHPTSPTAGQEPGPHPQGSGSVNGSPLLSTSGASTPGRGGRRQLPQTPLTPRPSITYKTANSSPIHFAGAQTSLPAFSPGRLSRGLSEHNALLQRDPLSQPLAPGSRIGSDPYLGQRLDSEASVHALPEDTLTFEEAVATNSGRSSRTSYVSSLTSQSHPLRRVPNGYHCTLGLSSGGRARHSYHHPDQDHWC
quantity_kind: IC50 (nM)

Solved entries:
- compound: "NC(=O)c1ccc(C(=O)N2CCC(N(C3CC3)S(=O)(=O)c3cccc(C(F)(F)F)c3)CC2)c(C(F)(F)F)c1"
  IC50, nM: 760
- compound: "CS(=O)(=O)c1ccc(C(=O)N2CCC(N(C3CC3)S(=O)(=O)c3cccc(C(F)(F)F)c3)CC2)c(Cl)c1"
  IC50, nM: 290
- compound: "CS(=O)(=O)c1ccc(C(=O)N2CCC3(CCN(S(=O)(=O)c4cccc(C(F)(F)F)c4)CC3)C2)c(C(F)(F)F)c1"
  IC50, nM: 310
- compound: "CC(C)(C1CCN(C(=O)c2ccc(S(C)(=O)=O)cc2OC(F)(F)F)CC1)S(=O)(=O)c1cccc(C(F)(F)F)c1"
  IC50, nM: 92
- compound: "CS(=O)(=O)c1ccc(F)cc1C(=O)N1CCC(N(C2CC2)S(=O)(=O)c2cccc(C(F)(F)F)c2)C1 (racemic)"
  IC50, nM: 370
- compound: "CS(=O)(=O)c1cc(C#N)ccc1C(=O)N1CCC(N(C2CC2)S(=O)(=O)c2cccc(C(F)(F)F)c2)CC1"
  IC50, nM: 450
- compound: "CN(C1CCN(C(=O)c2ccccc2S(C)(=O)=O)CC1)S(=O)(=O)c1cccc(C(F)(F)F)c1"
  IC50, nM: 460
- compound: "CC(C1CCN(C(=O)c2ccc(S(C)(=O)=O)cc2OC(F)(F)F)CC1)S(=O)(=O)c1cccc(C(F)(F)F)c1 (stereo in doubt; 30 en-2)"
  IC50, nM: 370
- compound: "CS(=O)(=O)c1ccc(Cl)c(C(=O)N2CCC(N(C3CC3)S(=O)(=O)c3cccc(C(F)(F)F)c3)CC2)c1"
  IC50, nM: 340
- compound: "C[C@H]1[C@H](N(C2CC2)S(=O)(=O)c2cccc(C(F)(F)F)c2)CN1C(=O)c1ccc(S(C)(=O)=O)cc1Cl (racemic)"
  IC50, nM: 48

[P] CCN(C1CCN(C(=O)c2ccccc2OC(F)(F)F)CC1)S(=O)(=O)c1cccc(C(F)(F)F)c1
[Q] CS(=O)(=O)c1ccc(C(=O)N2CC(N(C3CC3)S(=O)(=O)c3cccc(C(F)(F)F)c3)C2)c(C(F)(F)F)c1
-- ask Parameter metric = IC50. Return the lower-valued option from P and Q . Provide the label of your selected option as the answer.
-- reply Q

[P] CS(=O)(=O)c1ccc(C(=O)N2CCC(CS(=O)(=O)c3cccc(C(F)(F)F)c3)CC2)c(OC(F)(F)F)c1
[Q] CS(=O)(=O)c1ccc(F)cc1C(=O)N1CCC2(CCN(S(=O)(=O)c3cccc(C(F)(F)F)c3)CC2)C1
-- ask Parameter metric = IC50. Return the lower-valued option from P and Q . Provide the label of your selected option as the answer.
-- reply Q

----------
assay: Clearance in rat at 3 mg/kg, po and 1 mg/kg, iv; assay type: ADME, organism-based; settings: in vivo
quantity_kind: clearance (mL/min/kg)

- structure_as_smiles: "CC(C)(C1CCN(C(=O)c2ccc(S(C)(=O)=O)cc2OC(F)(F)F)CC1)S(=O)(=O)c1cccc(C(F)(F)F)c1"
  measured: 27

[P] NS(=O)(=O)c1cccc(C(F)(F)F)c1
[Q] CC(C)(C1CCN(C(=O)c2cc(F)ccc2S(C)(=O)=O)CC1)S(=O)(=O)c1cccc(C(F)(F)F)c1
-- ask // max by clearance over [ P , Q ] Provide the label of your selected option as the answer.
-- reply Q

----------
target: Voltage-dependent N-type calcium channel subunit alpha-1B (Homo sapiens, UniProt Q00975); assay: Inhibition of Cav2.2-mediated calcium influx in HEK cells by FLIPR assay
quantity_kind: IC50 (nM)

Solved entries:
- compound: "C[C@H]1[C@H](N(C2CC2)S(=O)(=O)c2cccc(C(F)(F)F)c2)CN1C(=O)c1cc(F)ccc1S(C)(=O)=O (racemic)"
  IC50 / nM: 430
- compound: "C[C@@H]1[C@H](N(C2CC2)S(=O)(=O)c2cccc(C(F)(F)F)c2)CN1C(=O)c1cc(F)ccc1S(C)(=O)=O (racemic)"
  IC50 / nM: 380
- compound: "CS(=O)(=O)c1ccc(C(=O)N2CCC(N(C3CC3)S(=O)(=O)c3cccc(C(F)(F)F)c3)CC2)c(F)c1"
  IC50 / nM: 350

[a] NC(=O)c1ccc(C(=O)N2CCC(N(C3CC3)S(=O)(=O)c3cccc(C(F)(F)F)c3)CC2)c(OC(F)(F)F)c1
[b] CS(=O)(=O)c1ccc(C(=O)N2CCC(N(C3CC3)S(=O)(=O)c3cccc(C(F)(F)F)c3)CC2)c(C(F)(F)F)c1
[c] CS(=O)(=O)c1cc(C(F)(F)F)ccc1C(=O)N1CCC2(CCN(S(=O)(=O)c3cccc(C(F)(F)F)c3)CC2)C1
[d] CS(=O)(=O)c1ccc(F)cc1C(=O)N1CC(N(C2CC2)S(=O)(=O)c2cccc(C(F)(F)F)c2)C1
-- ask hey, can you rank those compounds up there by IC50? biggest number first please State the ranking by listing the labels in the requested order.
-- reply d, a, c, b

----------
assay: Half life in rat at 3 mg/kg, po and 1 mg/kg, iv; format: ADME, organism-based; settings: in vivo
quantity_kind: half-life (h)
Note: unit h is implicit; provide only the numeric part.

-- ask Given the compound CC(C)(C1CCN(C(=O)c2ccc(S(C)(=O)=O)cc2OC(F)(F)F)CC1)S(=O)(=O)c1cccc(C(F)(F)F)c1 , write its reported half-life.
-- reply 2.3

The reported measurements were obtained from ChEMBL document CHEMBL3091454.
